Assay: inhibitors of intracellular Trypanosoma cruzi, primary screen, cell-based, plate reader, single point, set 2 (AID 651903);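 also: parasites and compound incubated about four days before reading; 0% = median of neutral control wells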
Conditions: intracellular Trypanosoma cruzi in host cells, at 5.01 µM, active compounds read high
Hit rate of the full screen: of about 22,000 compounds, about 1,100 (5%) were called active. Shown is part of a subset that was picked to be rich in actives.
value_kind: activity score (inhibition) (%)

Cc1ccc(S(=O)(=O)Nc2ccc3c(c2)CC(=O)N([C@@H](C)CO)C[C@@H](C)[C@@H](CN(C)S(=O)(=O)c2ccccc2)O3)cc1 = 52
C[C@H](CO)N1C[C@H](C)[C@@H](CN(C)S(=O)(=O)c2ccc(F)cc2)Oc2c(NC(=O)Nc3ccccc3)cccc2C1=O = 14.1
COc1ccc(S(=O)(=O)Nc2cccc3c2O[C@H](CN(C)S(=O)(=O)c2ccc(OC)cc2)[C@@H](C)CN([C@H](C)CO)C3=O)cc1 = 8.53
C[C@@H]1CN([C@@H](C)CO)C(=O)CCCn2cc(nn2)CO[C@@H]1CN(C)Cc1cccc(O)c1 = -17.1
Cc1noc(C)c1NC(=O)N(C)C[C@H]1Oc2ccc(NC(=O)Nc3ccc(C(F)(F)F)cc3)cc2CC(=O)N([C@@H](C)CO)C[C@@H]1C = -4.63
COc1ccc(S(=O)(=O)Nc2cccc3c2O[C@@H](CN(C)S(=O)(=O)c2ccc(F)cc2)[C@H](C)CN([C@H](C)CO)C3=O)cc1 = -4.59
Cc1cccc(CN(C)C[C@@H]2OCc3cn(nn3)CCCC(=O)N([C@@H](C)CO)C[C@H]2C)c1 = -37.4
C[C@H]1CN([C@@H](C)CO)C(=O)Cc2cc(NC(=O)Nc3ccc4c(c3)OCO4)ccc2O[C@H]1CN(C)Cc1ccc(C(=O)Nc2ccccc2N)cc1 = 62.8
CC(C)NC(=O)Nc1cccc2c1O[C@H](CN(C)CC1CCCCC1)[C@H](C)CN([C@H](C)CO)C2=O = -12
CNC[C@H]1Oc2c(NC(=O)C3CC3)cccc2C(=O)N([C@@H](C)CO)C[C@@H]1C = -26.9
C[C@@H]1CN([C@@H](C)CO)C(=O)c2cccc(NC(=O)CCCCCC(=O)Nc3ccccc3N)c2O[C@@H]1CN(C)CC1CCCCC1 = 17.2
CCCC(O)C#Cc1cnc2c(c1)C(=O)N([C@H](C)CO)C[C@H](C)[C@H](CN(C)Cc1ccc(F)cc1)O2 (stereo not given in full) = 18.5
C[C@H]1CN([C@@H](C)CO)C(=O)CCCn2nncc2CO[C@@H]1CN(C)S(=O)(=O)c1ccccc1C#N = -9.5
Cc1ccc(S(=O)(=O)N(C)C[C@H]2Oc3ccc(NS(C)(=O)=O)cc3CC(=O)N([C@@H](C)CO)C[C@H]2C)cc1 = 5.47
CC(C)NC(=O)Nc1cccc2c1O[C@H](CN(C)Cc1ccc3c(c1)OCO3)[C@H](C)CN([C@H](C)CO)C2=O = -10.8
